Measured AC50, listed per entry.
molecular target: Paired box protein Pax-8 (Homo sapiens); assay: inhibitors of PAX8-driven TPO luciferase reporter, dose response, RMG-I cells, cherry-pick (AID 687027); format: functional, cell-based;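 further: luciferase reporter driven by Pax8 target thyroperoxidase promoter measured by SteadyGlo luminescence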
Sequence (Q06710 whole entry): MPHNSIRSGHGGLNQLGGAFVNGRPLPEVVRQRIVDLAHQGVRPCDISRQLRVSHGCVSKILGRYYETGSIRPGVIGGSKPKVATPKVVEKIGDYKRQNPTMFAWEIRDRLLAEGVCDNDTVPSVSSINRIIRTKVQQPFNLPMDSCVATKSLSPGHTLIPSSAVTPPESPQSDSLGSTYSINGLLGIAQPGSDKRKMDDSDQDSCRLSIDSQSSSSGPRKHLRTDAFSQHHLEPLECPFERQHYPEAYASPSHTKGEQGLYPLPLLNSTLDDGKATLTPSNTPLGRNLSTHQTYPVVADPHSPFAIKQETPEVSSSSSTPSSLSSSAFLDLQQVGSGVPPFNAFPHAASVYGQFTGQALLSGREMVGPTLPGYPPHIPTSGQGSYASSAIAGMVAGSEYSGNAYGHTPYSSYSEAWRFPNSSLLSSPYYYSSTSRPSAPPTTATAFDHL
Activity calls are given as the source filed them. How the calls were made is not given here.

Use the examples below as a reference point.
line-notation: CC(C)CC#Cc1ccc2c(c1)O[C@@H](CN(C)S(=O)(=O)c1ccc(F)cc1)[C@@H](C)CN([C@@H](C)CO)S2(=O)=O
AC50: 12.9 µM (active)
--
line-notation: C[C@H](CO)N1C[C@H](C)[C@H](CN(C)CC2CCCCC2)Oc2ccc(NS(=O)(=O)c3ccc(Cl)cc3)cc2CC1=O
AC50: 7.77 µM (active)

Now examine the next entry.
Q: Field request: AC50 | item: `C[C@@H]1CN([C@H](C)CO)C(=O)c2cc(NS(=O)(=O)c3ccc(F)cc3)ccc2O[C@@H](C)CCCCO[C@H]1CN(C)Cc1ccc(C(F)(F)F)cc1`
Ans: 5.54 µM (active)
